molecular target: Luciferin 4-monooxygenase (Photinus pyralis) (UniProt P08659); assay: Firefly luciferase inhibition profiling of diverse chemical library using quantitative high-throughput screening; further: nearly all actives have a fitted effect of over 65% in size; conditions: purified P. pyralis luciferase, luminescence, biochemical; series mostly up to 115 µM
Sequence (P08659 whole entry, looked up): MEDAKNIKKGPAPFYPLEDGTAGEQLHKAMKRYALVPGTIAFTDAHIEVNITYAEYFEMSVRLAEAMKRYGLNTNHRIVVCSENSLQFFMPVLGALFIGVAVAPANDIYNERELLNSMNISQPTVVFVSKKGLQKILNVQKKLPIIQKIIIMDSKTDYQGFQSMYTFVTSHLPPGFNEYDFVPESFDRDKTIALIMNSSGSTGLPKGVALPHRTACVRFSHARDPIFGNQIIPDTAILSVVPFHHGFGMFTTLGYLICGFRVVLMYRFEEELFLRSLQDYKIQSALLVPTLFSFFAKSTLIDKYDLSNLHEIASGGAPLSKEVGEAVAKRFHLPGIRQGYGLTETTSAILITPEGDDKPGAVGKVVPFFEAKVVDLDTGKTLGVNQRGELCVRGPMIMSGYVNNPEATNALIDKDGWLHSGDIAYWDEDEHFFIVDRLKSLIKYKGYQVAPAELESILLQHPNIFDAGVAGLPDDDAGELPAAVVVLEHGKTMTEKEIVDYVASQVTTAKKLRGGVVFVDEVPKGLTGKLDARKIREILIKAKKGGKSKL
Out of some 76,000 compounds screened, about 1,900 (2.5%) were called active. Roughly 5% stayed inconclusive and do not appear here. The call rests on the fitted dose curve; in most records, active means well fitted inhibition curve with a large enough effect; inconclusive means small, poorly fitted or top-dose-only effect; inactive means flat fitted curve, though single readings scatter. The full list was thinned out, with actives kept by preference.
Possible outcomes: active, inactive

molecule=O=C1NCCCCCCN(Cc2ccc3c(c2)CCO3)[C@H]2CCC[C@@H]12 experimental_system="Luciferin 4-monooxygenase (Photinus pyralis) (UniProt P08659)" class=inactive
molecule=Fc1ccc(Nc2nc(-c3ccccc3F)no2)cc1 experimental_system="Luciferin 4-monooxygenase (Photinus pyralis) (UniProt P08659)" class=active
molecule=COc1ccccc1C(=O)NCc1ccnc2[nH]ccc12 experimental_system="Luciferin 4-monooxygenase (Photinus pyralis) (UniProt P08659)" class=inactive
molecule=CCCNC(=O)CCC1CCN(C(=O)c2ccc(C)cc2)CC1 experimental_system="Luciferin 4-monooxygenase (Photinus pyralis) (UniProt P08659)" class=active
molecule=O[C@H]1CC[C@@H](Cc2cc(-c3ccccc3)on2)O[C@@H]1CNCc1ccccc1 experimental_system="Luciferin 4-monooxygenase (Photinus pyralis) (UniProt P08659)" class=inactive
molecule=CC(=O)N1CCc2sc(C(=O)NCc3ccc(F)cc3Cl)cc2C1 experimental_system="Luciferin 4-monooxygenase (Photinus pyralis) (UniProt P08659)" class=inactive
molecule=COc1ccc(NC(=O)CCC2CCN(S(=O)(=O)c3ccc(C)cc3)CC2)cc1F experimental_system="Luciferin 4-monooxygenase (Photinus pyralis) (UniProt P08659)" class=inactive
molecule="COc1ccc(C(=O)NCC(=O)N2CCCCCCNC(=O)CC2c2ccccc2)cn1 (stereo unspecified)" experimental_system="Luciferin 4-monooxygenase (Photinus pyralis) (UniProt P08659)" class=inactive
molecule=O=C(NCc1cccs1)c1ccc2c(c1)OCCN(c1ccccc1)C2 experimental_system="Luciferin 4-monooxygenase (Photinus pyralis) (UniProt P08659)" class=inactive
molecule=Cc1ccc2nc(CO[C@H]3CN(C4CCOCC4)C[C@H]3F)[nH]c2c1 experimental_system="Luciferin 4-monooxygenase (Photinus pyralis) (UniProt P08659)" class=inactive
molecule=Cn1ccc(Nc2cc3c(cn2)CN(CCc2ccccc2)CCN3)n1 experimental_system="Luciferin 4-monooxygenase (Photinus pyralis) (UniProt P08659)" class=inactive
molecule=c1cc(N2CCOCC2)ccc1-c1cc(-c2cn[nH]c2)c2cncn2c1 experimental_system="Luciferin 4-monooxygenase (Photinus pyralis) (UniProt P08659)" class=active
molecule=CN(C)C[C@@H]1CN(C)C[C@H]1NC(=O)c1ccnnc1 experimental_system="Luciferin 4-monooxygenase (Photinus pyralis) (UniProt P08659)" class=inactive
molecule="COCCn1c(CO)nnc1C1CC(NC(=O)c2sc(C)nc2C)C1 (stereo unspecified)" experimental_system="Luciferin 4-monooxygenase (Photinus pyralis) (UniProt P08659)" class=inactive
molecule=COc1cncc(-c2cccc(COc3ccc4c(cnn4CC[S+](C)(=O)[O-])c3)c2)c1 experimental_system="Luciferin 4-monooxygenase (Photinus pyralis) (UniProt P08659)" class=inactive
molecule="O=C(c1ccccc1)N1CCCC(c2noc(COc3ccccc3)n2)C1 (stereo unspecified)" experimental_system="Luciferin 4-monooxygenase (Photinus pyralis) (UniProt P08659)" class=inactive
molecule=CCN1C(=O)CCN(C(=O)CCc2ccc(OC)cc2)CC12CCOCC2 experimental_system="Luciferin 4-monooxygenase (Photinus pyralis) (UniProt P08659)" class=inactive
molecule=CCN(CC)CC[C@H]1CN(C(=O)c2ccc(N(C)C)cc2)CC[C@H]1CC(=O)O experimental_system="Luciferin 4-monooxygenase (Photinus pyralis) (UniProt P08659)" class=inactive
molecule=O=C(CC1CCCC1)N1CCC(c2nc(C3CCOCC3)no2)CC1 experimental_system="Luciferin 4-monooxygenase (Photinus pyralis) (UniProt P08659)" class=inactive
molecule=CN(c1ccccc1)c1cc(=O)c2ccnc(Nc3cccc([S+](C)(=O)[O-])c3)c2o1 experimental_system="Luciferin 4-monooxygenase (Photinus pyralis) (UniProt P08659)" class=inactive
molecule=CCOc1ccc(Nc2ncncc2-c2nc(-c3ccccc3)no2)cc1 experimental_system="Luciferin 4-monooxygenase (Photinus pyralis) (UniProt P08659)" class=inactive
molecule=O=C([C@H]1C[C@H](Oc2cccnc2)CN1C(=O)CCCc1ccccc1)N1CCOCC1 experimental_system="Luciferin 4-monooxygenase (Photinus pyralis) (UniProt P08659)" class=inactive
molecule=Cc1ccc(-c2ccc3nnc(CNC(=O)c4ccccn4)n3n2)cc1 experimental_system="Luciferin 4-monooxygenase (Photinus pyralis) (UniProt P08659)" class=inactive
molecule=OCc1cccc(-c2cc3c(cn2)CN(Cc2ccccc2)CCN3)c1 experimental_system="Luciferin 4-monooxygenase (Photinus pyralis) (UniProt P08659)" class=active
molecule="O=C(NCc1ccccn1)C1CN(S(=O)(=O)c2cccs2)CC12CCCCC2 (stereo unspecified)" experimental_system="Luciferin 4-monooxygenase (Photinus pyralis) (UniProt P08659)" class=inactive
molecule="COc1ccc(CN2CCC3(COc4ccccc4C(=O)N3)C2)cc1 (stereo unspecified)" experimental_system="Luciferin 4-monooxygenase (Photinus pyralis) (UniProt P08659)" class=inactive
